Sourced from patent US20260262643A1

tested on: oat, wild; experiment: Test C preemergence; format: in vivo, Avena fatua; conditions: Test C, preemergence, 125 g ai/ha; 0 to 100 scale (0 no effect, 100 complete control)
Description: […]
Cut-off 20 on Oat, Wild plant response rating, inclusive. At or above means Fulfilled; below means Not fulfilled.

[[record]]
compound = "Cc1cccc2c1OC(C(F)(F)F)CN2C(=O)c1cccc(-n2cnc(C(C)C)n2)c1 (racemic) [Compound 301]"
label_value = "Fulfilled"

[[record]]
compound = "CC(C)c1ncn(-c2ccc(SC(F)(F)F)c(C(=O)N3C[C@H](C)Oc4c(Cl)cccc43)c2)n1"
label_value = "Not fulfilled"


Q: Quick check, Oat, Wild plant response rating >= 20? Cc1cccc2c1O[C@@H](C)CN2C(=O)c1cccc(-n2cnc(C#N)c2)c1
Ans: Not fulfilled

Q: Now give it for COc1cc(C(=O)N2C[C@H](C)Oc3c(Cl)cccc32)cc(-n2cnc(C(C)(C)C)n2)c1 too.
Ans: Not fulfilled

Q: How about this compound: CCn1cnc(-c2cccc(C(=O)N3C[C@H](C)Oc4c(C)cccc43)c2)n1
Ans: Not fulfilled

Q: Next entry: COC[C@H]1CN(C(=O)c2cc(-n3cncn3)ccc2OC)c2cccc(Cl)c2O1
Ans: Fulfilled

Q: Proceed to Cc1c(F)cc(-n2cnc(C(C)C)n2)cc1C(=O)N1C[C@H](C)Oc2c(Cl)cccc21
Ans: Fulfilled

----------
Measured Plant response rating, Oat, Wild by item
tested on: oat, wild; test: Test A preemergence; assay type: in vivo, Avena fatua; settings: 125 g ai/ha, visual injury after 10 days, 0 to 100 scale, 0 is no effect, 100 is complete control

Some entries whose results are on file:
[[record]]
compound = "CCCc1ncn(-c2cccc(C(=O)N3C[C@H](C)Oc4c(C)cccc43)c2)n1"
tested_on = "oat, wild"
test_value = 10

[[record]]
compound = "Cc1ccc(-n2cnc(Br)n2)cc1C(=O)N1C[C@H](C)Oc2c(Cl)cccc21"
tested_on = "oat, wild"
test_value = 0

[[record]]
compound = "C[C@H]1CN(C(=O)c2cccc(-n3cnc(Br)n3)c2)c2cccc(Cl)c2O1"
tested_on = "oat, wild"
test_value = 0

[[record]]
compound = "C[C@H]1CN(C(=O)c2cccc(-n3cncn3)c2)c2cccc(OC(F)(F)F)c2O1"
tested_on = "oat, wild"
test_value = 20

[[record]]
compound = "C[C@H]1CN(C(=O)c2cccc(-n3cncn3)c2)c2cccc(C(F)(F)F)c2O1"
tested_on = "oat, wild"
test_value = 10


Q: Report Plant response rating, Oat, Wild for CC1CN(C(=O)c2cccc(-n3cncn3)c2)c2c(F)cccc2O1 (stereo not shown) please.
Ans: 0

Q: Ok, now Cc1ccc(C(=O)N2CC(C)Oc3c(Cl)cccc32)cc1-n1cncn1 (stereo not shown)
Ans: 10

----------
test system: ragweed; assay: Test C postemergence; format: in vivo, Ambrosia artemisiifolia; details: Postemergence, 500 g ai/ha, 10 days, visual 0 to 100 scale (0 no effect, 100 complete control)
Listing: Plant response rating, Ragweed of selected compounds

[[record]]
compound = "CCc1ncn(-c2ccc(C)c(C(=O)N3CC(C(F)(F)F)Oc4c(Cl)cccc43)c2)n1 (single isomer, unassigned) [Compound 218]"
test_value = 80

[[record]]
compound = "COC[C@H]1CN(C(=O)c2cc(-n3cnc(C4CC4)n3)ccc2OC)c2cccc(Cl)c2O1 [Compound 235]"
test_value = 80

[[record]]
compound = "CCc1c(C)cc(-n2cnc(C(C)C)n2)cc1C(=O)N1C[C@H](C)Oc2c(Cl)cccc21 [Compound 179]"
test_value = 10


Okay, now this compound:
Q: Entry Cc1ccc(-n2cnc(C(C)(F)F)n2)cc1C(=O)N1C[C@H](C)Oc2c(Cl)cccc21 [Compound 248] : reported Plant response rating, Ragweed = ?
Ans: 90

----------
test system: foxtail, giant; test: Test A preemergence; type: in vivo, Setaria faberi; settings: Setaria faberi, pre-emergence, 240 h, 125 g ai/ha, visual injury after 10 days, 0 to 100 scale, 0 is no effect, 100 is complete control, read-out: Plant response rating, Foxtail, Giant
# pest or weed control at 125 g/ha annotations
Give the value; after it, write the unit.

Sample records with pest or weed control at 125 g/ha:
[[record]]
compound = "Cc1ccc(-n2ncnc2C)cc1C(=O)N1C[C@H](C)Oc2c(Cl)cccc21 (single isomer, unassigned)"
test_value = "60%"

[[record]]
compound = "C[C@H]1CN(C(=O)c2cccc(-c3cnn(C)n3)c2)c2cccc(Cl)c2O1"
test_value = "90%"


Okay, now this compound:
Q: Given the entry Cc1ncn(-c2ccc(C)c(C(=O)N3C[C@H](C)Oc4c(Cl)cccc43)c2)n1 (single isomer, unassigned) , report its measured pest or weed control at 125 g/ha.
Ans: 100%

----------
Measured Plant response rating, Wheat of individual entries
test system: wheat; experiment: Test C postemergence; type: in vivo, Triticum aestivum; conditions: 500 g ai/ha, postemergence, 10 days, 0 to 100 scale (0 no effect, 100 complete control)
Excerpt: […]
Enter the number alone.

Example entries and their recorded answers appear below.
[[record]]
compound = "Cc1ncnn1-c1cc(C(=O)N2CC(C(F)(F)F)Oc3c(Cl)cccc32)ccn1 (racemic) [Compound 333]"
tested_on = "wheat"
test_value = 10

[[record]]
compound = "CC(C)c1ncn(-c2ccc(S(C)(=O)=O)c(C(=O)N3C[C@H](C)Oc4c(Cl)cccc43)c2)n1 [Compound 393]"
tested_on = "wheat"
test_value = 20

[[record]]
compound = "Cc1ccc(-n2cnc(C(C)(C)C)n2)cc1C(=O)N1CC(C(F)(F)F)Oc2c(Cl)cccc21 (stereo not shown) [Compound 350]"
tested_on = "wheat"
test_value = 10

[[record]]
compound = "CCOC[C@H]1CN(C(=O)c2cc(-n3cnc(CC)n3)cc3c2OCCO3)c2cccc(Cl)c2O1 [Compound 387]"
tested_on = "wheat"
test_value = 30

[[record]]
compound = "Cc1cccc2c1O[C@@H](C)CN2C(=O)c1cccc(-n2cnc(C#C[Si](C)(C)C)n2)c1 [Compound 284]"
tested_on = "wheat"
test_value = 10

[[record]]
compound = "CSc1ccc(-n2cnc(C(C)C)n2)cc1C(=O)N1C[C@H](C)Oc2c(Cl)cccc21 [Compound 391]"
tested_on = "wheat"
test_value = 40


Q: Give recorded Plant response rating, Wheat with wheat for the following compound: Cc1ccc(-n2cnc(C(C)O)n2)cc1C(=O)N1CC(C)Oc2c(Cl)cccc21 (mixture of isomers) [Compound 358]
Ans: 80

----------
system: foxtail, giant; assay: Test A preemergence; assay type: in vivo, Setaria faberi; conditions: 1000 g ai/ha, 0 to 100 scale (0 no effect, 100 complete control), 10 days
Threshold-based label: Plant response rating, Foxtail, Giant under 20 gives 1 (yes), Plant response rating, Foxtail, Giant not under 20 gives 0 (no).

Sample answers from the record:
[[record]]
compound = "Cc1cccc2c1O[C@@H](C)CN2C(=O)c1cccc(-n2cc(C(F)(F)F)cn2)c1 [Compound 130]"
tested_on = "foxtail, giant"
label_value = "1 (yes)"

[[record]]
compound = "Cc1noc(-c2cccc(C(=O)N3C[C@H](C)Oc4c(Cl)cccc43)c2)n1 [Compound 121]"
tested_on = "foxtail, giant"
label_value = "0 (no)"

[[record]]
compound = "CC1CN(C(=O)c2cccc(-n3cncn3)c2)c2ccc(F)cc2O1 (stereo not drawn) [Compound 23]"
tested_on = "foxtail, giant"
label_value = "0 (no)"

[[record]]
compound = "C=Cc1cccc2c1OC(C)CN2C(=O)c1cccc(-n2cncn2)c1 (stereo not drawn) [Compound 26]"
tested_on = "foxtail, giant"
label_value = "1 (yes)"

[[record]]
compound = "C[C@H]1CN(C(=O)c2cccc(-c3ccncc3)c2)c2cccc(Cl)c2O1 [Compound 123]"
tested_on = "foxtail, giant"
label_value = "1 (yes)"


Q: Problem: For the compound CC1CN(C(=O)c2cccc(-n3cncn3)c2)c2cccc(F)c2O1 (stereo not drawn) [Compound 20] , is Plant response rating, Foxtail, Giant under 20?
Ans: 0 (no)

Q: Moving on to C[C@H]1CN(C(=O)c2cccc(-n3cccn3)c2)c2cccc(Cl)c2O1 [Compound 129]
Ans: 1 (yes)

Q: Repeat for the following compound: CC1CN(C(=O)c2ccnc(-n3cncn3)c2)c2ccccc2O1 (stereo not drawn) [Compounds 8]
Ans: 0 (no)

Q: Same thing, different compound: COc1cccc2c1OC(C)CN2C(=O)c1cccc(-n2cncn2)c1 (stereo not drawn) [Compound 41]
Ans: 0 (no)

----------
system: barnyardgrass; assay: Test D flooded paddy test; type: in vivo, Echinochloa crus-galli; conditions: 250 g ai/ha, applied to paddy water, visual rating after 13 to 14 days, scale 0 to 100 (0 no effect, 100 complete control)
Reported Plant response rating, Barnyardgrass (Flood) values follow for various compounds
Returns: the value as a bare number; no unit string appended.

Q: Give its Plant response rating, Barnyardgrass (Flood) value. Item: Cc1ncn(-c2ccc(C)c(C(=O)N3CC(C(F)(F)F)Oc4c(Cl)cccc43)c2)n1 (centres unmarked)
Ans: 0
